# experiment: qHTS drug screen for cell cycle checkpoint inhibitors in PARPi-resistant BRCA-mutant ovarian cancer cell lines. (AID 1963452)
# setup conditions: PEO1/OlaR viability, CellTiter-Glo luminescence, 96 h; measured here: PEO4 Z-AUC; stronger effect = lower value
reported property: Z-AUC
Hey, just send me the number, nothing else.

Asked: Return reported Z-AUC; argument: COc1cccc2cc(-c3nc(C4CCC(C(=O)O)CC4)n4ncnc(N)c34)[nH]c12 (stereo not given)
Given back: -0.315

Asked: Form field: reported Z-AUC of CC[C@H](Nc1ncnc2nc[nH]c12)c1nc2cccc(F)c2c(=O)n1-c1ccccc1
Given back: 0.476

Asked: // Z-AUC lookup, key: CCOc1cc(C(=O)Nc2ccc(Cl)c(-c3nc4ccccc4[nH]3)c2)cc(OCC)c1OCC
Given back: -0.467

Asked: What measured Z-AUC goes with CNC(=O)c1ccc(C)c(-n2c(C)cc(OCc3ccc(F)cc3F)c(Br)c2=O)c1 ?
Given back: -0.46

Asked: Please give the measured Z-AUC for this compound: Nc1nc2c(ncn2COCCO)c(=O)[nH]1
Given back: -0.538

Asked: Which value of Z-AUC has been reported for Cn1cc(-c2ccc3nnc(C(F)(F)c4ccc5ncccc5c4)n3n2)cn1 in the records?
Given back: 0.204

Asked: Endpoint output: Z-AUC of COc1cc(F)c(F)c(Nc2ccc(I)cc2F)c1NS(=O)(=O)C1(C[C@H](O)CO)CC1 . Value?
Given back: -1.19

Asked: Would you kindly share the measured Z-AUC for COc1cc2c(cc1OC)CN(CCc1ccc(NC(=O)c3cccc4c(=O)c5cccc(OC)c5[nH]c34)cc1)CC2 ?
Given back: 0.963

Asked: Report Z-AUC for Cc1csc(NC(=O)c2sc3nc4c(c(C(F)(F)F)c3c2N)CCC4)n1 please.
Given back: 0.375

Asked: Reported Z-AUC for O=C(Nc1cccnc1)N1CCC(Cc2cccc(Oc3ccc(C(F)(F)F)cn3)c2)CC1 : what is it?
Given back: -1.18

Asked: Entry OCCn1cc(-c2cnc3nnn(Cc4ccc5ncccc5c4)c3n2)cn1 has what Z-AUC?
Given back: 0.506

Asked: Need Z-AUC, item NNCCc1ccccc1
Given back: 0.249

Asked: Fill in the blank: the reported Z-AUC of Cc1cc2c(F)c(Oc3ncnn4cc(OC[C@@H](C)O)c(C)c34)ccc2[nH]1 is ____.
Given back: 0.987

Asked: Endpoint output: Z-AUC of CN(C(=O)c1ccc(F)cc1C(F)(F)F)C1CCN(c2nnc(-c3ccnn3C)c3ccccc23)CC1 . Value?
Given back: -0.538

Asked: // query Z-AUC value for entry CN1CCN(CCCN2c3ccccc3Sc3ccc(C(F)(F)F)cc32)CC1
Given back: 0.215

Asked: Which Z-AUC value belongs to CC(C)c1onc(-c2c(Cl)cccc2Cl)c1COc1ccc(/C=C/c2cccc(C(=O)O)c2)c(Cl)c1 ?
Given back: 0.0704

Asked: Give its Z-AUC value. Item: O=C(C1CC1)N1CC[C@@H](Cn2c(-c3ccc(-c4ccc5occc5c4)cc3)nc3cnccc32)C1
Given back: 0.902

Asked: Give its Z-AUC value. Item: CC(c1cc2ccccc2s1)N(O)C(N)=O (stereo not given)
Given back: -0.638

Asked: Entry O=C1[C@H](Cc2ccc(O)cc2)N2C(=O)CCN(C(=O)NCc3ccccc3)[C@H]2CN1Cc1cccc2ccccc12 has what Z-AUC?
Given back: 0.0223

Asked: Recorded Z-AUC of CCC(C)N(C)C(=O)c1cc2ccccc2c(-c2ccccc2Cl)n1 (stereo not given) , please.
Given back: -0.805
